- Test system: Trypanosoma brucei brucei
- Experiment Description: Antitrypanosomal activity against blood stream form of Trypanosoma brucei brucei BF427 after 48 hrs by Alamar Blue assay
- Type: functional, organism-based
- Experimental Conditions: BF427, 48 h

{"Compound": "CCOC(=O)/C=C\\[C@@H]1CC[C@@H](CC(=O)OCc2ccccc2)OO1", "IC50 / nM": 1350}
{"Compound": "N#CC=C[C@@H]1CC[C@@H](CC(=O)OCc2ccccc2)OO1 (mixture of isomers)", "IC50 / nM": 3140}
{"Compound": "CC(=O)/C=C/[C@@H]1CC[C@@H](CC(=O)OCc2ccccc2)OO1", "IC50 / nM": 900}
{"Compound": "O=C(/C=C\\[C@@H]1CC[C@@H](CC(=O)OCc2ccccc2)OO1)OCc1ccccc1", "IC50 / nM": 240}
{"Compound": "CCOC(=O)/C=C/[C@@H]1CC[C@@H](CC(=O)OCc2ccccc2)OO1", "IC50 / nM": 620}
{"Compound": "N=C(N)c1ccc(OCCCCCOc2ccc(C(=N)N)cc2)cc1", "IC50 / nM": 860}
{"Compound": "O=C(C[C@@H]1CC[C@@H](/C=C\\C(=O)c2ccccc2)OO1)OCc1ccccc1", "IC50 / nM": 580}
{"Compound": "CC(C)(C)OC(=O)/C=C/[C@@H]1CC[C@@H](CC(=O)OCc2ccccc2)OO1", "IC50 / nM": 200}
